target: mouse PD-L1 (cell surface) (mouse, UniProt Q9EP73); assay: FACS, 293T m-PD-L1 cells
Sequence (Q9EP73 19-238): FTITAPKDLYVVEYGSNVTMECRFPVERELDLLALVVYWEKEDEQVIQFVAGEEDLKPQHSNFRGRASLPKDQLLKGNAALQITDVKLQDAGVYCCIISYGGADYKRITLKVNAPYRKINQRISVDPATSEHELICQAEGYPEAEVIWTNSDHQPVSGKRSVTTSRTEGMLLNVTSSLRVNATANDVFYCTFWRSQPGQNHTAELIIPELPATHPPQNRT
pEC50: −log10 of the molar value.
Observed Property: pEC50

Binder	Observed Property	Numeric Result
3H1-2A2 (antibody, V domains shown) VH: QVQLVESGGGVVQPGGSLRLSCAASGIDFSDTHMHWVRQAPGKQRELVAIITSGGFTDYVDSVKGRFTISRDNSKNTLYLQMNSLRAEDTAVYYCNARRSTIYWGQGTQVTVSS	pEC50	8.85
3H1-2F4 (antibody, V domains shown) VH: QVQLVESGGGVVQPGGSLRLSCAASGIDFSDLHMHWVRQAPGKQRELVAIITSGGSTDYVDSVKGRFTISRDNSKNTLYLQMNSLRAEDTAVYYCNARSSTIYWGQGTQVTVSS	pEC50	9.00

Value source: patent US20260365734
